readout label: melting point

INSERT INTO assay_data (compound, reported_result) VALUES
  ('CCc1cc(CC)c(-c2c(O)c(C)nn(C)c2=O)c(CC)c1I [I-a-72]', '217 to 219 °C'),
  ('CCc1cc(C)c(F)c(CC)c1-c1c(O)c(C)nn(C)c1=O [I-a-74]', '193 to 195 °C'),
  ('CCc1cc(CC)c(-c2c(O)c(C)nn(C)c2=O)c(CC)c1Cl [I-a-49]', '225 to 226 °C');

Look up melting point for this compound: Cc1ccc(Br)cc1-c1c(O)c(C)nn(C)c1=O [I-a-45]
217 to 218 °C

Look up melting point for this compound: CCc1cc(C)c(Br)c(CC)c1-c1c(OC(=O)OC)c(C)nn(C)c1=O [I-b-50]
113 to 115 °C
